Listing: composite z-score of selected compounds
biological target: Torsin-1A-interacting protein 1 (Homo sapiens) (UniProt Q5JTV8); experiment: LAP1 binders from COS7 cell lysate, primary screen, small-molecule microarray, 635/667 nm fluorescence (AID 1116); conditions: COS7-hLAP1 lysate binding, 635 nm fluorescence, higher = more signal
Sequence (Q5JTV8 whole entry, looked up): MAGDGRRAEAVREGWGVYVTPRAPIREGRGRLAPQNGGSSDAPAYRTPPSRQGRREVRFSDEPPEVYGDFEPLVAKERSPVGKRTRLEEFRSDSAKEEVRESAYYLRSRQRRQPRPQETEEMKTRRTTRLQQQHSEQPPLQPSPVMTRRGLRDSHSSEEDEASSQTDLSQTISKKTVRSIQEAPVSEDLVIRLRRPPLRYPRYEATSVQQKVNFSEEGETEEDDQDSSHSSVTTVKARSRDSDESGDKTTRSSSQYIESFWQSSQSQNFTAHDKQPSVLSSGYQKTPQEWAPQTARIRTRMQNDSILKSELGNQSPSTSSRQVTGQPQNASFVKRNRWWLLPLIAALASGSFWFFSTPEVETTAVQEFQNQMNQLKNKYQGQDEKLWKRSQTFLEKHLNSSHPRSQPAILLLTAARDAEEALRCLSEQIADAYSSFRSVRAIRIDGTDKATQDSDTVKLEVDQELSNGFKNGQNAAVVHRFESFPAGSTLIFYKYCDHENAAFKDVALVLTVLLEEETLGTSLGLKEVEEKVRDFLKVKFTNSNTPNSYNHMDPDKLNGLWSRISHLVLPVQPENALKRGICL
Lab note: record just the number, no unit beside it.

Below, 7 compounds whose answers are already recorded.
compound=C=C[C@@H](OC)[C@H](OC(=O)Nc1ccc(SC)cc1)c1ccc(OCCO)cc1 parameter_measured="composite z-score" recorded_number=1.03
compound=[N-]=[N+]=NCc1ccccc1C[C@@]1(C(=O)N2CCCCC2)N=C(c2ccc(OCCCO)cc2)O[C@@H]1c1ccccc1CN=[N+]=[N-] parameter_measured="composite z-score" recorded_number=1.01
compound=COc1ccc(C#Cc2ccc3c(c2)[C@]2(C(=O)N3)[C@H](C(=O)N3CCCCCCC3)[C@H]3C(=O)O[C@H](c4ccccc4)[C@H](c4ccccc4)N3[C@@H]2c2ccc(O)cc2)cc1 parameter_measured="composite z-score" recorded_number=2.85
compound="C=C(C)C1CCC(C(O)C2C=CC3C(=O)N(C)C(=O)C3N2Nc2cc(OC)c(OC)c(OC)c2)CC1 (stereo not drawn)" parameter_measured="composite z-score" recorded_number=-0.161
compound=[N-]=[N+]=Nc1ccccc1C[C@]1(C(=O)O)N=C(c2ccc(OCCCO)cc2)O[C@H]1c1ccccc1N=[N+]=[N-] parameter_measured="composite z-score" recorded_number=1.5
compound=COC(=O)[C@@]1(Cc2ccc(F)cc2)[C@H]2c3cc(C(=O)N4CCCC4)n(CC4CC4)c3C[C@H]2CN1C(=O)c1ccccc1 parameter_measured="composite z-score" recorded_number=1.22
compound=[N-]=[N+]=NCc1ccccc1[C@H]1OC(c2ccc(OCCCO)cc2)=N[C@@]1(CCS(=O)(=O)c1ccccc1)C(=O)NCc1ccccc1 parameter_measured="composite z-score" recorded_number=0.804

// moving on: another record for composite z-score
Task item: Recall the recorded composite z-score for COC(=O)C1=CC(CCCO)=CC(c2ccc(CN3CCCC3)cc2)N(Cc2cc3c(cc2Br)OCO3)C=C1C(=O)OC (stereo not drawn) with Torsin-1A-interacting protein 1 (Homo sapiens) (UniProt Q5JTV8) and state it.
Reply: 1.48

====

assay: S. cerevisiae RM11-1a growth modifiers, primary screen, strain RM11-1a, OD600, basal, 24 h (AID 1177); conditions: OD600, 24 h, higher = more signal, called active from +8 up or from −8 down;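 also: cultures grown under basal conditions with no added stressor; test concentration not given here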
Activity calls are given as the source filed them.
The compounds listed here are annotated with their z-score.

The following compounds have reported results that may help.
compound=C=C(C(=O)CC[C@H](OC(=O)c1ccccc1-c1ccccc1C(=O)O)c1ccccc1OCCO)C(C)C result="-0.0722 (inactive)"
compound="O=C1C2C=CC(C(O)c3ccco3)N(Nc3ccccc3)C2C(=O)N1c1ccccc1 (stereo not drawn)" result="0.829 (inactive)"

Task item: Request the reported z-score associated with CN1C(=O)C2C(C1=O)C1C=C(CCCO)C2C(C2CC2)N1Cc1cc2c(cc1Br)OCO2 (stereo not drawn)
Reply: 0.0644 (inactive)

====

assay: small-molecule microarray binders of probe aWnt5a, primary screen, biochemical, biotinylated probe, 635/667 nm fluorescence (AID 1113); settings: higher = more signal;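 also: score merges 667 nm fluorescence intensity with signal-to-noise per printed feature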
# composite z-score per entry
Would you mind answering with just the numeric figure?

compound="COC(=O)C1=CC(CCCO)=CC(C)N(Cc2cccc(OC(F)(F)F)c2)C=C1C(=O)OC (configuration not stated)" recorded_number=-0.0643
compound=[N-]=[N+]=NCc1ccccc1C[C@]1(C(=O)N2CCOCC2)COC(c2ccc(OCCCO)cc2)=N1 recorded_number=0.168
compound=O=C1[C@@]23C=C(Br)[C@H](C[C@@H]2COC3)[C@@]12CO2 recorded_number=-0.102
compound=COc1ccc(C#Cc2ccc3c(c2)[C@]2(C(=O)N3)[C@H](c3ccc(OCCO)cc3)N3[C@H](c4ccccc4)[C@H](c4ccccc4)OC(=O)[C@H]3[C@@H]2C(=O)N2CCc3cc(OC)c(OC)cc3C2)cc1 recorded_number=-0.0215
compound=C=C(COC)C(=O)CC[C@H](OC(C)=O)c1ccc(OCCO)cc1 recorded_number=-0.0445

Task item: Which value of composite z-score has been reported for C=C(C)[C@@H]1CC=C(C(O)C2C=CC3C(=O)N(c4ccccc4)C(=O)C3N2Nc2ccc(C#N)cc2)CC1 (some centres not stated) in the records?
Reply: -0.0431

Task item: Query: composite z-score; subject: CN1C(=O)C2C=CC(C(O)c3cc(C(F)(F)F)cc(C(F)(F)F)c3)N(NC(=O)OC(C)(C)C)C2C1=O (configuration not stated)
Reply: -0.0607

Task item: Which composite z-score is listed for COc1ccc([Si](C)(C)[C@H]2[C@H](CCO)O[C@@]3(C(=O)N(Cc4ccccc4)c4ccc(N5C(=O)c6ccccc6Oc6ccccc65)cc43)[C@@H]2C)cc1 ?
Reply: 0.0431

Task item: Fill in the blank: the reported composite z-score of C=C(CCCC)/C(=C/C[C@H](OC(C)=O)c1ccc(OCCO)cc1)c1cc(C(=O)OC)ccc1OC is ____.
Reply: 0.027

Task item: Bench note: what composite z-score did Cc1cccc([C@H]2C[C@H]3C(Br)=C[C@@H]2C(=O)[C@]32CO2)c1 show?
Reply: -0.18

Task item: Which composite z-score is reported for this compound? C=CCNC(=O)[C@H]1[C@@H]2C(=O)O[C@@H](c3ccccc3)[C@@H](c3ccccc3)N2[C@@H](c2ccc(OCCO)cc2)[C@]12C(=O)N(C(=O)OCCOC)c1ccc(C#Cc3ccc(OC)cc3)cc12
Reply: -0.0445

Task item: Which measured composite z-score value corresponds to COCCOC(=O)N1C(=O)[C@@]2(c3cc(C#Cc4ccc(OC)cc4)ccc31)[C@H](c1ccc(OCCO)cc1)N1[C@H](c3ccccc3)[C@H](c3ccccc3)OC(=O)[C@H]1[C@@H]2C(=O)Nc1nc2ccccc2s1 ?
Reply: 0.0017

Task item: Could you share which composite z-score value was measured for COC(=O)C(CC#Cc1ccc2c(c1)[C@]1(C(=O)N2)[C@H](c2ccc(O)cc2)N2[C@H](c3ccccc3)[C@H](c3ccccc3)OC(=O)[C@H]2[C@@H]1C(=O)N1CCCCCCC1)C(=O)OC ?
Reply: 0.593

Task item: Can you look up the measured composite z-score of COCCOC(=O)N1C(=O)[C@@]2(c3cc(C#CCC(C(=O)OC)C(=O)OC)ccc31)[C@H](C(=O)NC[C@H](O)c1ccccc1)[C@H]1C(=O)O[C@H](c3ccccc3)[C@H](c3ccccc3)N1[C@@H]2c1ccc(OCCO)cc1 for me?
Reply: -0.0792

Task item: I would be grateful if you could share the reported composite z-score for CC(C)C[C@@H]1NC(=O)[C@@H]2C[C@H](C(=O)NCCCCCC[N+](C)(C)C)[C@H](c3cccc(OCCO)c3)N2C1=O .
Reply: -0.156

Task item: Find the recorded composite z-score belonging to O=C(CS)NCCCCCCNC(=O)[C@@H]1C[C@@H]2C(=O)NCC(=O)N2[C@@H]1c1ccc(O)cc1 and report it.
Reply: -0.239

Task item: Given the compound Nc1cc(Br)ccc1C(=O)O , what is its reported composite z-score?
Reply: -0.0045
